Biological target: T1, receptor-binding domain (RBD) of the spike (S) protein of SARS-CoV-2 (SARS-CoV-2, UniProt P0DTC2 319-541)
T1 construct: also called soluble RBD
Experiment: ELISA, coated RBD [cont'd]
measurementLabel: EC50

>>> valuereported("MnC4t1p1_A11 (antibody, V domains shown) VH: EVQLVESGGGLVQPGGSLRLSCAASGFTFSSYSMNWVRQAPGKGLEWVSYISSSSNTRYYTDSVMGRFTISRDNAKNSLFLQMNSLRAEDTAVYYCASSKGFCSGGSCSDYWGQGTLVTVSS VL: EIVLTQSPGTLSLSPGERATLSCRASQSVSSSYLAWYQQKPGQAPRLLIYGVSSRATGIPDRFSGSGSGTDFTLTISRLEPEDFVVYYCHQYGSSPWTFGQGTKVEIK")
"< 100 µg/mL"
>>> valuereported("MnC1t3p1_G9 (antibody, V domains shown) VH: EVQLLESGGGLVQPGGSLRLSCAASGFTFRNYAMTWVRQAPGKGLEWVSGISDSGDRTYNADSVKGRFSISRDNSKNTLHLQMNSLRAEDTAVYYCALASGSYFGGANYWGQGTLVTVSS VL: QAVVTQEPSLTVSPGGTVTLTCGSSTGPVTSDHYPYWFQQKPGQAPTTLIYDTNNKHSWTPARFSGSLLGGKAALTLSGAQPEDEAEYYCLLSYTGARVFGGGTKLTVL")
"< 100 µg/mL"
>>> valuereported("MnC2t2p1_C11 (antibody, V domains shown) VH: QVQLVQSGAEVKKPGSSVKVSCKASGGTFSRYTIIWVRQAPGQGLEWMGRIIPILDIANYAQKFQGRVTITADKSTSTAYMELSSLRSEDTAVYYCAREGGLDYFGSRNSGWTYTWFDPWGQGTLVTVSS VL: DIQMTQSPSSLSASVGDRVTITCRASQNISSYLNWYQQKPGKAPNLLIYAASSLQSGVPPRFSGSGSGTDFTLTISSLQPEDFATYYCQQSYSTLYSFGQGTKLEIK")
"< 100 µg/mL"
